The measured values listed here are drawn from ChEMBL document CHEMBL3045270.

Exercise: state measured Activity for each of the compounds provided.
# Tested on: Botrytis cinerea
# ASSAY METHOD TEXT: Fungicidal activity against Botryotinia fuckeliana infected cucumber plant at 500 ppm by foliar application
# Type: functional

COMPOUND | ASSAYED SYSTEM | Activity
CO/N=C(\c1ccccc1COc1cc(Cl)ccc1Cl)c1nccn1C | Botrytis cinerea | <50%

For each listed entry, give its Activity.
1. CON=C(c1ccccc1COc1cc(C)ccc1C)c1ccnn1C (mixture of isomers)
2. CO/N=C(/c1ncn[nH]1)c1ccccc1COc1cc(C)ccc1C
3. CO/N=C(\c1ccccc1COc1ccc(Cl)cc1Cl)c1nccn1C
4. CON=C(c1cc(C)ns1)c1ccccc1COc1cc(C)ccc1C (mixture of isomers)
5. CO/N=C(\c1nnco1)c1ccccc1COc1ccc(Cl)cc1C

["<50%", "<50%", "<50%", "<50%", "<50%"]

Items follow; give Activity for each.
1. CO/N=C(\c1ccccc1COc1ccc(C)cc1)c1nccn1C
2. CO/N=C(/c1nnco1)c1ccccc1COc1cc(Cl)ccc1Cl
3. CO/N=C(/c1noc(C)n1)c1ccccc1COc1cc(C)ccc1C
4. CO/N=C(/c1nnco1)c1ccccc1COc1cccc(Cl)c1
5. CON=C(c1cccs1)c1ccccc1COc1cc(C)ccc1C (mixture of isomers)

1. <50%
2. <50%
3. <50%
4. <50%
5. <50%
